Tested on: bacteria
experimental details: Binding of targeting peptides to microorganisms (Table 3)
measurement conditions: peptide binding in aqueous buffers that varied depending on peptide solubility; preferably 1x PBS
value type: Target(s) (microorganism bound by the targeting peptide)

1) PF-677 (chain 1 TCRGAGMH; chain 2 TCRGAGMH; Peptide with targeting and/or antimicrobial activity) = Mycobacteria spp
2) PF-685 (chain 1 PTLWLACL; chain 2 PTLWLACL; Peptide with targeting and/or antimicrobial activity) = Mycobacteria spp
3) PF-653 (chain 1 QSVHPLPAETPVADVI; chain 2 QSVHPLPAETPVADVI; Peptide with targeting and/or antimicrobial activity) = Mycobacteria spp
4) PF-800 (WYYFDNNGYM; Peptide with targeting and/or antimicrobial activity) = S. mutans
5) PF-788 (GLITVFAGTARILQLRRAAKKTHAAALR; Peptide with targeting and/or antimicrobial activity) = Mycobacteria spp.
6) PF-798 (ALHSKGIKVMADWVPDQMYA; Peptide with targeting and/or antimicrobial activity) = S. mutans

Proceed to the following item.
**Query** Give the measured Target(s) (microorganism bound by the targeting peptide) for PF-695 (chain 1 ALSVMLGNIPLVVPNANQL; chain 2 ALSVMLGNIPLVVPNANQL; Peptide with targeting and/or antimicrobial activity)
**Result** Mycobacteria spp
